Tested on: Rattus norvegicus
Test: Antiinflammatory activity in albino rat assessed as inhibition of carrageenan-induced paw edema at 18 mg/kg, ip pretreated for 1 hr followed by carrageenan challenge and measured after 3 hrs by caliper method relative to control
Format: functional
endpoint_label: inhibition in vivo at 18 mg/kg (%)
Quick reminder: number only, in %, skip the unit.

compound_smiles | unit_label | quantitative_readout
Cc1cc(-c2ccccc2)n(C(=O)c2ccccc2S(=O)(=O)NC(C)C)n1 | % | 59.6
Cc1cc(-c2ccccc2)n(C(=O)C(C(=O)n2nc(C)cc2-c2ccccc2)N2C(=O)c3ccccc3S2(=O)=O)n1 | % | 56.4
Cc1ccc(-c2cc(C(F)(F)F)nn2-c2ccc(S(N)(=O)=O)cc2)cc1 | % | 53.2

**Q:** Report value only: inhibition in vivo at 18 mg/kg, Rattus norvegicus, "O=C(N/N=C/c1ccc(F)cc1)C(C(=O)N/N=C/c1ccc(F)cc1)N1C(=O)c2ccccc2S1(=O)=O"
**A:** 54.2

**Q:** Report value: inhibition in vivo at 18 mg/kg, system: Rattus norvegicus, compound: "CC(C)NS(=O)(=O)c1ccccc1C(=O)N1N=C(c2ccccc2)CC1=O"
**A:** 44.7

**Q:** Give inhibition in vivo at 18 mg/kg for this entry on Rattus norvegicus: "Nn1c(S)nnc1-c1ccccc1S(=O)(=O)NCc1ccccc1"
**A:** 45.4

====

Below, each entry is listed alongside its reported Activity.
Test system: Rattus norvegicus
Assay: Antiinflammatory activity against carrageenan-induced paw oedema in albino rat assessed as hind paw thickness at 18 mg/kg, ip pretreated for 1 hr followed by carrageenan challenge and measured after 4 hrs by caliper method (reference value: 1.24 +/- 0.02 millimeter)
Assay type: functional
Your answer should be a plain number; it is taken to be in mm.

Sample records with Activity:
molecule | unit_label | Activity
Nn1c(S)nnc1-c1ccccc1S(=O)(=O)NCc1ccccc1 | mm | 0.63
Cc1ccc(-c2cc(C(F)(F)F)nn2-c2ccc(S(N)(=O)=O)cc2)cc1 [CELECOXIB] | mm | 0.46
Cc1cc(-c2ccccc2)n(C(=O)C(C(=O)n2nc(C)cc2-c2ccccc2)N2C(=O)c3ccccc3S2(=O)=O)n1 | mm | 0.48
O=C(N/N=C/c1ccc(F)cc1)C(C(=O)N/N=C/c1ccc(F)cc1)N1C(=O)c2ccccc2S1(=O)=O | mm | 0.55
Cc1cc(-c2ccccc2)n(C(=O)c2ccccc2S(=O)(=O)NC(C)C)n1 | mm | 0.43

Turning now to a further molecule:
**Q:** For the molecule "CC(C)NS(=O)(=O)c1ccccc1C(=O)N1N=C(c2ccccc2)CC1=O" , give its reported Activity.
**A:** 0.54

====

Test system: Rattus norvegicus
Experiment: Antiinflammatory activity against carrageenan-induced paw oedema in albino rat assessed as hind paw thickness at 18 mg/kg, ip pretreated for 1 hr followed by carrageenan challenge and measured after 1 hr by caliper method (reference value: 0.73 +/- 0.03 millimeter)
Format: functional
Tick 1.0 if Activity is 0.4 mm or greater. Tick 0.0 if Activity is less than 0.4 mm.

Worked examples, 2 compounds total:
compound_smiles | category_label
Cc1cc(-c2ccccc2)n(C(=O)c2ccccc2S(=O)(=O)NC(C)C)n1 | 0.0
CC(C)NS(=O)(=O)c1ccccc1C(=O)N1N=C(c2ccccc2)CC1=O | 1.0

**Q:** Assess whether reported Activity for "O=C(N/N=C/c1ccc(F)cc1)C(C(=O)N/N=C/c1ccc(F)cc1)N1C(=O)c2ccccc2S1(=O)=O" sits at 0.4 mm or higher.
**A:** 0.0

**Q:** Would you say "Cc1cc(-c2ccccc2)n(C(=O)C(C(=O)n2nc(C)cc2-c2ccccc2)N2C(=O)c3ccccc3S2(=O)=O)n1" shows Activity at minimum 0.4 mm?
**A:** 0.0

**Q:** Check if Activity >= 0.4 mm (inclusive). Item: "Nn1c(S)nnc1-c1ccccc1S(=O)(=O)NCc1ccccc1"
**A:** 1.0
